Attribute: MIC
# Tested on: Mycoplasma hyopneumoniae
# Type: cell-based
# assay_context: Mesomycoplasma hyopneumoniae; Veterinary organism Mycoplasma hyopneumoniae; agar-dilution
Give the quantity in µg/mL, number only.

Use the examples below as a reference point.
[
  {
    "compound": "C=C1CCC(Cl)C(C)(C)C1CC12OC(C)(C)C(Cl)CC1(Cl)C(=O)c1c(O)c(C)c([O-])c([N+]#N)c1C2=O (stereo not shown) [A80915B]",
    "MIC / µg/mL": 3.12
  },
  {
    "compound": "Cc1c([O-])c([N+]#N)c2c(c1O)C(=O)[C@@]1(Cl)C[C@@H](Cl)C(C)(C)O[C@@]1(C[C@H]1C(C)(C)[C@@H](Cl)CC[C@]1(C)O)C2=O [A80915D]",
    "MIC / µg/mL": 25
  }
]

Now for another entry.
[Q] Fill blank: measured MIC of the compound C=C1CCC(Cl)C(C)(C)C1CC12OC(C)(C)C(Cl)CC1(Cl)C(=O)c1c(cc(O)c(C)c1O)C2=O (stereo not shown) [A80915A] is ____.
[A] 3.12

====

# Test system: Pasteurella multocida
Attribute: MIC
Give the quantity in µg/mL, number only.

Use the examples below as a reference point.
[
  {
    "compound": "C=C1CCC(Cl)C(C)(C)C1CC12OC(C)(C)C(Cl)CC1(Cl)C(=O)c1c(O)c(C)c([O-])c([N+]#N)c1C2=O (stereo not shown) [A80915B]",
    "target_desc": "Pasteurella multocida",
    "MIC / µg/mL": 0.2
  },
  {
    "compound": "Cc1c(O)cc2c(c1O)C(=O)[C@@]1(Cl)C[C@@H](Cl)C(C)(C)O[C@@]1(C[C@H]1C(C)(C)[C@@H](Cl)CC[C@]1(C)O)C2=O [A80915C]",
    "target_desc": "Pasteurella multocida",
    "MIC / µg/mL": 50
  },
  {
    "compound": "Cc1c([O-])c([N+]#N)c2c(c1O)C(=O)[C@@]1(Cl)C[C@@H](Cl)C(C)(C)O[C@@]1(C[C@H]1C(C)(C)[C@@H](Cl)CC[C@]1(C)O)C2=O [A80915D]",
    "target_desc": "Pasteurella multocida",
    "MIC / µg/mL": 3.12
  }
]

Now for another entry.
[Q] Fill blank: measured MIC of the compound C=C1CCC(Cl)C(C)(C)C1CC12OC(C)(C)C(Cl)CC1(Cl)C(=O)c1c(cc(O)c(C)c1O)C2=O (stereo not shown) [A80915A] is ____.
[A] 3.12
